# experimentalSystem: T1, rh integrin α4β7 (R&D Systems #5397-A30) (human, UniProt P13612 34-970; P26010 20-723)
# T1 construct: bought; coated on a nickel coated plate; also called immobilized α4β7; immobilized α4β7 integrin protein
# assayOverview: competition ELISA vs MAdCAM-1
pIC50: −log10 of the molar value. Numbered stars: 1 amine (or outer) side, 2 acyl side, 3 side chain; on linkers, the order of the positions; unused ones are H or OH. Bridge positions count the residues as written; N and C are the ends. Square brackets hold non-standard residues; d marks the D form. Asp(OMe) = L-aspartic acid beta-methyl ester, COC(=O)C[C@H](N[*:1])C(=O)[*:2]; Phe(4-tBu) = CC(C)(C)c1ccc(C[C@H](N)C(=O)O)cc1; NMeR = CN[C@@H](CCCNC(=N)N)C(=O)O; β3hE = N[C@@H](CCC(=O)O)CC(=O)O; Pen = CC(C)(S)[C@H](N)C(=O)O

binder	pIC50
Ac-[Pen][NMeR]SDTL[Pen][Phe(4-tBu)]E[dK]-NH2 (disulfide 1-7; not fully specified (residue 10); printed as (Ac Pen N-Me-R S D T L Pen F(4tBu) E k NH2)2 DIG, disulfide Pen-Pen; also: homodimer, two subunits joined by DIG linker) [SEQ ID NO: 131]	≥ 8.00
Ac-[Pen][NMeR]SDTL[Pen][Phe(4-tBu)][β3hE]-OH (disulfide 1-7; SMILES CC(=O)N[C@@H]1C(=O)N(C)[C@@H](CCCNC(=N)N)C(=O)N[C@@H](CO)C(=O)N[C@@H](CC(=O)O)C(=O)N[C@@H]([C@@H](C)O)C(=O)N[C@@H](CC(C)C)C(=O)N[C@H](C(=O)N[C@@H](Cc2ccc(C(C)(C)C)cc2)C(=O)N[C@@H](CCC(=O)O)CC(=O)O)C(C)(C)SSC1(C)C) [SEQ ID NO: 152]	≥ 8.00
Ac-[Pen][NMeR]SDTL[Pen]YE[dK]-NH2 (disulfide 1-7; not fully specified (residue 10); printed as (Ac Pen N-Me-R S D T L Pen Y E k NH2)2 DIG, disulfide Pen-Pen; also: dimer, two subunits joined by DIG linker) [SEQ ID NO: 22]	≥ 8.00
XRSDTLXWE (Cyclo [Pen N-Me-R S D T L Pen W e]; disulfide Pen-Pen) [SEQ ID NO: 145]	6.30
Ac-[Pen][NMeR]SDDL[Pen]WE[dK]-NH2 (disulfide 1-7; SMILES CC(=O)N[C@@H]1C(=O)N(C)[C@@H](CCCNC(=N)N)C(=O)N[C@@H](CO)C(=O)N[C@@H](CC(=O)O)C(=O)N[C@@H](CC(=O)O)C(=O)N[C@@H](CC(C)C)C(=O)N[C@H](C(=O)N[C@@H](Cc2c[nH]c3ccccc23)C(=O)N[C@@H](CCC(=O)O)C(=O)N[C@H](CCCCN)C(N)=O)C(C)(C)SSC1(C)C) [SEQ ID NO: 46]	< 6.00
Ac-[Pen][NMeR]S[Asp(OMe)]TL[Pen]WE[dK]-NH2 (disulfide 1-7; not fully specified (residue 10); printed as (Ac Pen N-Me-R S D(OMe) T L Pen W E k NH2)2 DIG, disulfide Pen-Pen; also: homodimer: two subunits linked by DIG via D-Lys10 side chain) [SEQ ID NO: 73]	≥ 8.00
